assay: Heavy metal removal ability test in contaminated soil (ICP-MS), nickel; settings: content 1.0%; relative to EDTA control
hey, just use Y if measured Nickel (Ni) Adsorption rate is less than 200%, otherwise N

Use these answered entries as a reference point.
O=C(O)c1ccc(N2CCCN(c3ccc(C(=O)O)cc3)CCN(c3ccc(C(=O)O)cc3)CCCN(c3ccc(C(=O)O)cc3)CC2)cc1 ... Y
O=C(O)c1ccc(N2CCCN(c3ccc(C(=O)O)o3)CCN(c3ccc(C(=O)O)o3)CCCN(c3ccc(C(=O)O)o3)CC2)o1 ... Y
O=C(O)c1ccc(N2CCN(c3ccc(C(=O)O)cc3)CCN(c3ccc(C(=O)O)cc3)CCN(c3ccc(C(=O)O)cc3)CC2)cc1 ... Y

Now let's try a different one.
Hi there! Is Nickel (Ni) Adsorption rate for NCCNCCNCCN [Trientine, Triethylenetetramine, reference compound] below 200%, do you know?
N
